Each recorded value in this set is attributed to patent US20050245438A1.

# target-desc: T1, cloned human SRIF receptor SSTR4 (human, UniProt P31391 1-388)
# T1 construct: whole, on cells; assayed as cryostat sections of membrane pellets of the transfected cells; also called hSSTR4
# T1 sequence (P31391 whole entry): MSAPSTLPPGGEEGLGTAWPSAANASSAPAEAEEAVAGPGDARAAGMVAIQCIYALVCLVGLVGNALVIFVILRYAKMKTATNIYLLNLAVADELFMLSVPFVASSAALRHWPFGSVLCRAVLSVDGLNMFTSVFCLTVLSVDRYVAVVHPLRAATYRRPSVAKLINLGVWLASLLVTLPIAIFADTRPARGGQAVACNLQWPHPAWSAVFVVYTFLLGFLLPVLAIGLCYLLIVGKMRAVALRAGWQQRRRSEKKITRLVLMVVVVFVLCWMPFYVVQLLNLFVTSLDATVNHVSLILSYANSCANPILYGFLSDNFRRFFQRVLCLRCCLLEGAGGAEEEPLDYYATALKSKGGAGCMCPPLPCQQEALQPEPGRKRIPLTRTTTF
# experimental-details: radioligand displacement (125I-[Leu8,D-Trp22,Tyr25]SRIF-28), membrane pellet sections
Bridge positions count the residues as written; N and C are the ends. Square brackets hold non-standard residues; d marks the D form. * marks the point of attachment. d2Nal(3S-Me) = C[C@@H](c1ccc2ccccc2c1)[C@@H](N)C(=O)O; Phe(4-NH2) = Nc1ccc(C[C@H](N)C(=O)O)cc1; Carbamoyl = NC(=O)*
measurement-kind: IC50 (nM)

Use these answered entries as a reference point.
binder	measurement-kind	unit-abbrev	numeric-readout
H-CF[Phe(4-NH2)]WKTYC-OH (disulfide 1-8, synthetic cyclic octapeptide; also called Peptide 9; Peptide No. 9) [(cyclo)H-Cys-Phe-4Aph-Trp-Lys-Thr-Tyr-Cys-OH]	IC50	nM	1.1
Carbamoyl-CF[Phe(4-NH2)]WKTYC-OH (disulfide 1-8, synthetic cyclic octapeptide; also called Peptide No. 10) [(cyclo)Cbm-Cys-Phe-4Aph-Trp-Lys-Thr-Tyr-Cys-OH]	IC50	nM	3
H-CFA[dW]KTFC-OH (disulfide 1-8; SMILES C[C@@H]1NC(=O)[C@H](Cc2ccccc2)NC(=O)[C@@H](N)CSSC[C@@H](C(=O)O)NC(=O)[C@H](Cc2ccccc2)NC(=O)[C@H]([C@@H](C)O)NC(=O)[C@H](CCCCN)NC(=O)[C@@H](Cc2c[nH]c3ccccc23)NC1=O, synthetic cyclic octapeptide; also called Peptide 11; Peptide No. 11) [(cyclo)H-Cys-Phe-Ala-D-Trp-Lys-Thr-Phe-Cys-OH]	IC50	nM	0.98

[P] H-CF[Phe(4-NH2)][dW]KTFC-OH (disulfide 1-8, synthetic cyclic octapeptide; also called Peptide No. 2) [(cyclo)H-Cys-Phe-4Aph-D-Trp-Lys-Thr-Phe-Cys-OH]
[Q] H-CFAWKTAC-OH (disulfide 1-8, synthetic cyclic octapeptide; also called Peptide 12A; Peptide No. 12A) [(cyclo)H-Cys-Phe-Ala-Trp-Lys-Thr-Ala-Cys-OH]
[R] H-[dC]FY[d2Nal(3S-Me)]KTFC-OH (disulfide 1-8, also called Peptide No. 16) [(cyclo)H-D-Cys-Phe-Tyr-threo-(2R,3S)C^βMe-2Nal-Lys-Thr-Phe-Cys-OH]
Please list these binders in decreasing order of IC50. Answer by naming the labels in the order asked. Q, P, R
(Q: 3.5 nM, P: 0.88 nM, R: 0.55 nM)
